# TESTED ON: human TAS2R14 (Homo sapiens)
# Construct: expressed in transfected cells; host or cells: HEK293T-Gα16gust44
# Sequence (Q9NYV8 whole entry): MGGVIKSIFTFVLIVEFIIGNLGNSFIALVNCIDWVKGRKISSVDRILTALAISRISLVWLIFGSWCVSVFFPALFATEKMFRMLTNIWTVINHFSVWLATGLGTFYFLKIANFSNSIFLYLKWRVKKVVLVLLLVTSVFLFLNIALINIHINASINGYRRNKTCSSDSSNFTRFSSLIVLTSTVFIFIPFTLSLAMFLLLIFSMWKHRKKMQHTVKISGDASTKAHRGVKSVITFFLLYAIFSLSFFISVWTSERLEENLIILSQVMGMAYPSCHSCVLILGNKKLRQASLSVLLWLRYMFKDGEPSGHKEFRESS
# EXPERIMENTAL DETAILS: Calcium imaging assay (FLIPR), HEK293T-Gα16gust44 cells transfected with human TAS2R14
# Assay type: cell-based
# TEST CONTEXT: TAS2R14 trace; Time (s) 12 (Taurocholic Acid 12.016)

[
  {
    "GIVEN SMILES": "C[C@H](CCC(=O)NCC(=O)O)[C@H]1CC[C@H]2[C@@H]3[C@H](O)C[C@@H]4C[C@H](O)CC[C@]4(C)[C@H]3C[C@H](O)[C@]12C",
    "RLU": "-37.9898 RLU"
  },
  {
    "GIVEN SMILES": "C[C@H](CCC(=O)NCCS(=O)(=O)O)[C@H]1CC[C@H]2[C@@H]3CC[C@@H]4C[C@H](O)CC[C@]4(C)[C@H]3CC[C@]12C",
    "RLU": "-47.2431 RLU"
  },
  {
    "GIVEN SMILES": "C[C@H](CCC(=O)NCCS(=O)(=O)O)[C@H]1CC[C@H]2[C@@H]3[C@H](O)C[C@@H]4C[C@H](O)CC[C@]4(C)[C@H]3C[C@H](O)[C@]12C",
    "RLU": "-53.4595 RLU"
  },
  {
    "GIVEN SMILES": "C[C@H](CCC(=O)O)[C@H]1CC[C@H]2[C@@H]3[C@H](O)C[C@@H]4C[C@H](O)CC[C@]4(C)[C@H]3CC[C@]12C",
    "RLU": "-44.0879 RLU"
  },
  {
    "GIVEN SMILES": "C[C@H](CCC(=O)O)[C@H]1CC[C@H]2[C@@H]3[C@H](O)C[C@@H]4C[C@H](O)CC[C@]4(C)[C@H]3C[C@H](O)[C@]12C",
    "RLU": "-26.3442 RLU"
  }
]

###

Reported RLU values follow for various compounds
# TESTED ON: human TAS2R1 (Homo sapiens, UniProt Q9NYW7)
# Construct: expressed in transfected cells; host or cells: HEK293T-Gα16gust44
# Sequence (Q9NYW7 1-299): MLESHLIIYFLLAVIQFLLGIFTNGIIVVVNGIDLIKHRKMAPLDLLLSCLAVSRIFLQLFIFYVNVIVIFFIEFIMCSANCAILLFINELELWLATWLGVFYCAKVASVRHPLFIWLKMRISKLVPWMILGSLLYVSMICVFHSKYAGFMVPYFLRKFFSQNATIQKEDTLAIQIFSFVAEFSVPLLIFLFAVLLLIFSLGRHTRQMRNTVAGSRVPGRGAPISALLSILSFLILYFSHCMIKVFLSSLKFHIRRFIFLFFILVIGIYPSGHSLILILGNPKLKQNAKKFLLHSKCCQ
# EXPERIMENTAL DETAILS: Calcium imaging assay (FLIPR), HEK293T-Gα16gust44 cells transfected with human TAS2R1
# Assay type: cell-based
# TEST CONTEXT: Time 24.796 s
READOUT KIND: RLU

[
  {
    "GIVEN SMILES": "C[C@H](CCC(=O)O)[C@H]1CC[C@H]2[C@@H]3CC[C@@H]4C[C@H](O)CC[C@]4(C)[C@H]3CC[C@]12C",
    "READOUT KIND": "RLU",
    "ENDPOINT VALUE": "140.624 RLU"
  },
  {
    "GIVEN SMILES": "C[C@H](CCC(=O)O)[C@H]1CC[C@H]2[C@@H]3[C@H](O)C[C@@H]4C[C@H](O)CC[C@]4(C)[C@H]3C[C@H](O)[C@]12C",
    "READOUT KIND": "RLU",
    "ENDPOINT VALUE": "72.3168 RLU"
  },
  {
    "GIVEN SMILES": "C[C@H](CCC(=O)O)[C@H]1CC[C@H]2[C@@H]3[C@@H](O)C[C@@H]4C[C@H](O)CC[C@]4(C)[C@H]3CC[C@]12C",
    "READOUT KIND": "RLU",
    "ENDPOINT VALUE": "111.581 RLU"
  },
  {
    "GIVEN SMILES": "C[C@H](CCC(=O)O)[C@H]1CC[C@H]2[C@@H]3[C@H](O)C[C@@H]4C[C@H](O)CC[C@]4(C)[C@H]3CC[C@]12C",
    "READOUT KIND": "RLU",
    "ENDPOINT VALUE": "169.759 RLU"
  }
]

Source: paper PMC10247784
